Test system: influenza A/Puerto Rico/8/34 H1N1 (PR8) virus
Test: microbe, parasite or virus in culture
Format: cell-based
Details: Influenza A virus, H1N1|PR8, A549, 24 h
pIC50: −log10 of the molar value.
We use 6 as the dividing line for pIC50: on or above the line is Criterion met, below is Criterion not met.

Check out these entries, answers already filled in.
compound	test-target	group
Cc1nc(C#N)c(N)n1C(Cc1ccc(O)cc1)C(=O)O (centres unmarked) [Compound 5f]	influenza A/Puerto Rico/8/34 H1N1 (PR8) virus	Criterion not met
COC(=O)Cn1c(C)nc2c(=O)[nH]cnc21 [Compound 6a]	influenza A/Puerto Rico/8/34 H1N1 (PR8) virus	Criterion not met
Cc1nc2c(=O)[nH]cnc2n1C(C(=O)O)C(C)C (centres unmarked) [Compound 7c]	influenza A/Puerto Rico/8/34 H1N1 (PR8) virus	Criterion met
Cc1nc2c(=O)[nH]cnc2n1C(C)C(=O)O (centres unmarked) [Compound 7b]	influenza A/Puerto Rico/8/34 H1N1 (PR8) virus	Criterion not met

API: the following record is the query input.
Challenge: Check if pIC50 >= 6 (inclusive). Item: COC(=O)C(Cc1ccc(O)cc1)n1c(C)nc2c(=O)[nH]cnc21 (centres unmarked) [Compound 6f]
Response given: Criterion met
